The origin of these recorded values is patent US9546164B2.

# testTarget: hNav1.7 (Homo sapiens (Human))
# Sequence (Q15858 other isoform, or with tags, fused parts or gaps): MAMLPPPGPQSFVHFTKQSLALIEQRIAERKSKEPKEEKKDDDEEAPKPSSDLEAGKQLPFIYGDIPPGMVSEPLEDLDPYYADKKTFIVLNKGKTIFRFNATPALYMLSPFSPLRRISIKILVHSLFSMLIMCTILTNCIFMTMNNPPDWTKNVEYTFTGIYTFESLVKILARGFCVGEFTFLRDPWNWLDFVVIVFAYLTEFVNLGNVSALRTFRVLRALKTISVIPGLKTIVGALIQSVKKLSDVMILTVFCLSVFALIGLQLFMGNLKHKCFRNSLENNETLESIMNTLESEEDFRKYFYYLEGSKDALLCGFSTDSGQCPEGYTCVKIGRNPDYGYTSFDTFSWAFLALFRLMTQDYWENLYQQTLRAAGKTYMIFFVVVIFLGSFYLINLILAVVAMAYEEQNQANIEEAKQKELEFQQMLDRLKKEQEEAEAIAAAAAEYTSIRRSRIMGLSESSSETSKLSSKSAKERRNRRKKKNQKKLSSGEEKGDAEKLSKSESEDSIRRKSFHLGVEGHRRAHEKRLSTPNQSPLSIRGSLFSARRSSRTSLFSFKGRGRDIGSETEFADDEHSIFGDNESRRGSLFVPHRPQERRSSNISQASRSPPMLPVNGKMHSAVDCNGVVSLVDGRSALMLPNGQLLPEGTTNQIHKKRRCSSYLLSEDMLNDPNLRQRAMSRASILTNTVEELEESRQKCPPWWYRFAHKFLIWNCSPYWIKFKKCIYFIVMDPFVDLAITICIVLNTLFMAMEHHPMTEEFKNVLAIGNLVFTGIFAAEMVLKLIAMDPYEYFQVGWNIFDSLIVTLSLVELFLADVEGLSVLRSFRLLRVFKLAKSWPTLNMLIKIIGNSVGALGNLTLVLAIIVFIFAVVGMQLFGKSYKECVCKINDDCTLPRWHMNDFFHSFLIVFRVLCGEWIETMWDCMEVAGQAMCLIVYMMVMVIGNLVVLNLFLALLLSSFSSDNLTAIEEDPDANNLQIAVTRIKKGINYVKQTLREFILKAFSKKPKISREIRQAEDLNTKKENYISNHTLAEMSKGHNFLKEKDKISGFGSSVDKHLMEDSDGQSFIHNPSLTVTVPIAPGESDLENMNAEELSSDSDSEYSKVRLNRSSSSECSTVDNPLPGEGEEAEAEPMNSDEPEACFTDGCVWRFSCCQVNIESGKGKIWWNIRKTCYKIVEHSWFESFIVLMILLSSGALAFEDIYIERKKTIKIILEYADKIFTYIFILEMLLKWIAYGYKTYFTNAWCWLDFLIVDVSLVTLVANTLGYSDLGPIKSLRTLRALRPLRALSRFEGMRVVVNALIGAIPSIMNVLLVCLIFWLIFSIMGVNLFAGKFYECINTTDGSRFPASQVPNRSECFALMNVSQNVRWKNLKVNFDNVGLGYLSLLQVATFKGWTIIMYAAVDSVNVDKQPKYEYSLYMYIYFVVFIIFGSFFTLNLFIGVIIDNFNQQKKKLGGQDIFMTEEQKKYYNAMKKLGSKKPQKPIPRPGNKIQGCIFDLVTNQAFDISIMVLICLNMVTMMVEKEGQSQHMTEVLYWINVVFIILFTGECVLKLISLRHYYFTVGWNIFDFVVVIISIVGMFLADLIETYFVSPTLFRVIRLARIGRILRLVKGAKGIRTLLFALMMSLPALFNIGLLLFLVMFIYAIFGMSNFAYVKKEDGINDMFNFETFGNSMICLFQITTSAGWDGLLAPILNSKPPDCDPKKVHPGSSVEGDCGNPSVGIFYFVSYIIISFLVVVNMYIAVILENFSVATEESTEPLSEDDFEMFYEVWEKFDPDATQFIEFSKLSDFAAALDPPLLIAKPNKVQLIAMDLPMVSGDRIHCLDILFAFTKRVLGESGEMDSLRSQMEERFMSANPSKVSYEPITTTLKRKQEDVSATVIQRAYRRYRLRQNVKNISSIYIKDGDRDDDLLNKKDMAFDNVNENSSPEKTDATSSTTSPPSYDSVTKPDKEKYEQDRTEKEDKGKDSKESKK
# Sequence (Q07699 19-218 partner): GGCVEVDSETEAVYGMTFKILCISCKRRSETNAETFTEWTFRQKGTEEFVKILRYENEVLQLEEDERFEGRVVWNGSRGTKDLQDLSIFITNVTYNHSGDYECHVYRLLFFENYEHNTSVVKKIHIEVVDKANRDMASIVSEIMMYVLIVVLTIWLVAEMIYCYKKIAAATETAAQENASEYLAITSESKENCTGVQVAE
# experimentDescription: Tritiated sulfonamide competitive binding to membranes from cells expressing hNav1.7 and the β1 subunit;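 note: Filter-bound radioactivity counted by liquid scintillation, nonspecific binding defined with excess unlabelled ligand, IC50 fitted to percent inhibition of specific binding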
# appliedConditions: read-out: Ligand Binding Assay; 100 pM [3H]compound, membranes with hNav1.7 and β1 subunit, 18 h, room temperature
Structures can show the parent of a compound that is named as a salt.
Labelling field: enter MET if recorded IC50 is less than 20 nM. Enter NOT MET if it equals or exceeds that cut-off.

Dear colleague, could you confirm whether IC50 of O=C(NS(=O)(=O)C1CC1)c1cc(C2CC2)c(OCCC2CCN(Cc3cc(Cl)cc(Cl)c3)CC2)cc1F [Example 304, trifluoroacetic acid salt] falls below 20 nM? Thanks.
MET

# TODO verify IC50 < 20 nM strictly for this molecule: COC(C)(C)[C@@H](c1cc(Cl)cc(Cl)c1)N1CCC(COc2cc(F)c(C(=O)NS(C)(=O)=O)cc2C2CC2)CC1 (single isomer, unassigned)
MET

Identify whether the molecule `CC(C)Oc1ncc(CN2CCC(COc3cc(F)c(C(=O)NS(C)(=O)=O)cc3C3CC3)CC2)cc1Cl` records IC50 below 20 nM.
MET

Decide: IC50 of CS(=O)(=O)NC(=O)c1cc(C2CC2)c(OCC2CC3CCC(C2)N3Cc2cc(Cl)cc(Cl)c2)cc1F (centres unmarked) strictly below 20 nM?
MET

Please let me know if C[C@@H](c1cccc(F)c1)N1CCC(C)(COc2cc(F)c(C(=O)NS(C)(=O)=O)cc2C2CC2)CC1 (single isomer, unassigned) shows IC50 below 20 nM.
NOT MET

Decide: IC50 of CC(c1cc(Cl)cc(Cl)c1)N1CCN(Cc2cc(F)c(C(=O)NS(C)(=O)=O)cc2C2CC2)CC1 (centres unmarked) strictly below 20 nM?
MET

Please let me know if `CS(=O)(=O)NC(=O)c1cc(C2CC2)c(OCC2CN(C(=O)c3cc(Cl)cc(Cl)c3)C2)cc1F` shows IC50 below 20 nM.
NOT MET

I wonder whether CS(=O)(=O)NC(=O)c1cc(C2CC2)c(OCC2CCN([C@@H](c3cc(Cl)cc(Cl)c3)C(F)F)CC2)cc1F (single isomer, unassigned) has IC50 below 20 nM. Can you tell?
MET

Given `CS(=O)(=O)NC(=O)c1cc(C2CC2)c(OCC2CCN(S(=O)(=O)c3ccccc3C(F)(F)F)CC2)cc1F` , is recorded IC50 strictly lower than 20 nM?
NOT MET

In the record for CS(=O)(=O)NC(=O)c1cc(C2CC2)c(CN2[C@@H]3CC[C@H]2CC(Oc2cc(C(F)(F)F)cc(Cl)c2F)C3)cc1F (some centres unmarked) , is IC50 less than 20 nM?
MET

Regarding `CS(=O)(=O)NC(=O)c1cc(Cl)c(OCC2CN(C(c3ccccc3)c3ccccc3)C2)cc1F` , kindly confirm whether its IC50 is beneath 20 nM.
NOT MET

Take the molecule CS(=O)(=O)NC(=O)c1cc(C2CC2)c(OCC2CCN(C(c3ccc(F)cc3Cl)C(F)(F)F)CC2)cc1F (centres unmarked) and say whether its IC50 is less than 20 nM.
MET

Please determine if `O=C(NS(=O)(=O)C1CC1)c1cc(C2CC2)c(O[C@@H]2CCCN(c3ccccn3)C2)cc1F` is below 20 nM in terms of IC50.
NOT MET

Item `CS(=O)(=O)NC(=O)c1cc(C2CC2)c(OCC2CN(Cc3cc(Cl)cc(Cl)c3)C2)cc1F` : IC50 beneath 20 nM, strictly?
MET
